Listing: pIC50 of selected compounds
ASSAYED_TARGET: ferroportin (Fpn) (Mus musculus, UniProt Q9JHI9)
Construct: host or cells: J774 mouse macrophage cell line, Fe(III)-NTA induced
Sequence (Q9JHI9 1-570): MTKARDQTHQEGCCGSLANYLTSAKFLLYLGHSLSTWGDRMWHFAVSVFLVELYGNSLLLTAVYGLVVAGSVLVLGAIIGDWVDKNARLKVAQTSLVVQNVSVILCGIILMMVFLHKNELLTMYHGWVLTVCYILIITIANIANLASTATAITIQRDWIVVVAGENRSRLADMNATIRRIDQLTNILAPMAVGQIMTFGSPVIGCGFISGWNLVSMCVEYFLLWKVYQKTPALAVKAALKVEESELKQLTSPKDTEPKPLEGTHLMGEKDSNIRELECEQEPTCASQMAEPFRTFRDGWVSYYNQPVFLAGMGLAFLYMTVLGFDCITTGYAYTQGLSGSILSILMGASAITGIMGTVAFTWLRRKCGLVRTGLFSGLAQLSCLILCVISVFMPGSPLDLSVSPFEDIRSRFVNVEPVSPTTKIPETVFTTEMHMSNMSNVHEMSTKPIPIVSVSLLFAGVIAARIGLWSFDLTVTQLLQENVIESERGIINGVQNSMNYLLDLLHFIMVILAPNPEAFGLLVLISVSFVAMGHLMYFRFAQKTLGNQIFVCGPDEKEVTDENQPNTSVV
ASSAY_NOTES: Hepcidin Internalization Assay (J774)
Format: cell-based
CONDITION_LABEL: average of multiple measurements; inhibition of TMR-hepcidin (25 nM) internalization into J774 cells; read-out: J774 IC50
Description: This cellular assay allows quantification of the binding of hepcidin to ferroportin (Fpn) through microscopic detection of internalization of a fluorescently labeled hepcidin into J774 cells. […] Therefore, microscopic detection of ceH associated TMR fluorescence is a measure of hepcidin binding to Fpn and internalization of hepcidin and Fpn. If TMR-hepcidin is prevented from binding to Fpn, cellular TMR fluorescence remains low (Dürrenberger et al, 2013). […]
pIC50: −log10 of the molar value.
PROPERTY_MEASURED: pIC50

INSERT INTO results (compound, sign, reported) VALUES
  ('O=C(NCc1ncccc1F)c1nc(CCNCCc2nc3ccccc3[nH]2)sc1C(F)(F)F', '=', 6.52),
  ('Cn1c(CNCCc2nc(C(=O)NCc3ccccc3)cs2)nc2ccccc21', '=', 6.74),
  ('O=C(NCc1ncccc1F)c1coc(CCNCCc2nc3c(F)cccc3[nH]2)n1', '=', 7.34),
  ('O=C(c1csc(CCNCc2nc3ccccc3[nH]2)n1)N1CCOCC1', '=', 5.06),
  ('O=C(NCc1ccccc1)c1csc(CCNCc2nc3cc(OC(F)(F)F)ccc3[nH]2)n1', '=', 6.03),
  ('O=C(NCc1ccncc1)c1csc(CCNCc2nc3ccccc3[nH]2)n1', '=', 6.60),
  ('CN(Cc1ccccc1)C(=O)c1csc(CCNCc2nc3ccccc3[nH]2)n1', '=', 5.19),
  ('O=C(NCc1ncccc1Cl)c1cnn(CCNCc2nc3ccccc3[nH]2)c1', '=', 6.75),
  ('O=C(NCc1ncccc1F)c1csc(CCN(Cc2nc3ccccc3[nH]2)Cc2nc3ccccc3[nH]2)n1', '=', 5.95),
  ('O=C(NCc1ccccn1)c1coc(C2CN(CCc3nc4c(F)cccc4[nH]3)C2)n1', '=', 6.82),
  ('O=C(NCc1ccccn1)c1nc(CCN2CCc3nc4ccccc4n3C2)sc1Cl', '=', 7.22),
  ('O=C(NCC1CCCCC1)c1csc(CCNCc2nc3ccccc3[nH]2)n1', '=', 5.77),
  ('Cc1ccc(CNC(=O)c2csc(CCNCc3nc4ccccc4[nH]3)n2)nn1', '=', 6.28),
  ('CC(C)N(C(=O)c1csc(CCNCc2nc3ccccc3[nH]2)n1)C1CCCCC1', '=', 5.66),
  ('O=C(NC1CCc2cccnc21)c1csc(CCNCc2nc3ccccc3[nH]2)n1 (stereo not drawn)', '=', 7.15),
  ('O=C(Cc1nc2ccccc2[nH]1)NCCc1nc(C(=O)NCc2ncccc2F)cs1', '<', 4.60),
  ('O=C(NCc1ncccn1)c1csc(CCNCc2nc3ccccc3[nH]2)n1', '=', 6.25),
  ('O=C(NCc1ncccc1F)c1csc(CCNCc2ccc3nc[nH]c3c2)n1', '=', 5.32);
